Test system: XF 498 CNS
Experiment notes: NCI tumour cell line growth inhibition, 48 h
Catalogue of TGI readings, one per entry.

Past entries and their recorded results:
Find the measured TGI of N#CC(/C(CCCC(=O)Nc1cccc([N+](=O)[O-])c1)=N\NC(=O)c1c(O)ccc2ccccc12)c1nc2ccccc2s1 (stereo not drawn) and report it.
> 100 µM

Find the measured TGI of `CN1CCN(c2nc(N)c(Br)c(Cl)n2)CC1` and report it.
> 100 µM

Now for another entry.
Find the measured TGI of N#Cc1ccc(C2SCc3nc4ccccc4n32)cc1 (stereo not drawn) and report it.
> 100 µM

---

Test system: OVCAR-4 ovarian
Experiment notes: NCI tumour cell line growth inhibition, 48 h; in the data active means GI50 below about 0.43 µM; inactive means the rest
Answer with one of the outcomes active, inactive

A selection of reference data follows.
Tell me the assay call for `CN(C)c1ccc2[nH]c3c(C(N)=O)cc(=O)c(=O)c=3oc2c1` please.
inactive

Tell me the assay call for `COc1ccc2c(c1)C(=O)c1c-2n(CCCN(C)C)c(=O)c2cc([N+](=O)[O-])ccc12` please.
active

Tell me the assay call for `FC(F)(F)c1cccc(-c2[nH]ncc2-c2nnnn2-c2ccccc2)c1` please.
inactive

Tell me the assay call for `COc1ccc(-c2c(-c3ccc(C#N)c(F)c3)nc(N3CCC(N)CC3)n(C)c2=O)cc1F` please.
inactive

Tell me the assay call for `O=C1C(Cl)=C(NCCCN(CCCNC2=C(Cl)C(=O)c3ccccc3C2=O)C2=C(Cl)C(=O)c3ccccc3C2=O)C(=O)c2ccccc21` please.
inactive

Tell me the assay call for CN(CCCCCl)P(=O)(OCc1ccc([N+](=O)[O-])o1)OCC1OC(n2cc([N+](=O)[O-])c(=O)[nH]c2=O)CC1O (configuration not stated) please.
inactive

New cases:
Tell me the assay call for `CCOC(=O)/C=C1/SC(=Nc2ccc(C#N)cc2)N(Cc2ccco2)C1=O` please.
inactive

Tell me the assay call for `Clc1ccc(-c2nc(NCc3ccco3)c3ccccc3n2)c(Cl)c1` please.
inactive

Tell me the assay call for `CC/C=C\C[C@H]1C/C=C2/C(=O)C(Cl)=C[C@@H]2C/C=C\CCCC(=O)O1` please.
inactive

Tell me the assay call for `O=C1/C(=C/c2ccc(C(F)(F)F)cc2)COc2ccc(O)c(O)c21` please.
inactive

Tell me the assay call for `COc1cc(C(=O)O[C@H](C(=O)NCCCCNC(=O)[C@@H](OC(=O)c2cc(OC)cc3c(C)cccc23)[C@]2(C)CO2)[C@]2(C)CO2)c2cccc(C)c2c1` please.
active

Tell me the assay call for `COc1ccc(-c2[nH]ncc2Nc2cc(OC)c(OC)c(OC)c2)cc1` please.
inactive
